Test system: HSkMC
assay-info: cytotoxicity call (relative viability < 0.9)
reported-conditions: 10 µM
Hit rate of the full screen: of about 39,000 compounds, about 1,500 (3.8%) were called active. Only a selection was taken, and actives are over-represented in it overall.
Outcomes: active, inactive

{"smiles-code": "CC(C)NC(=O)N(C)C[C@@H]1Oc2ccc(NS(=O)(=O)c3cccs3)cc2C(=O)N([C@@H](C)CO)C[C@H]1C", "experimental-system": "HSkMC", "classification": "inactive"}
{"smiles-code": "C[C@@H]1CCCCO[C@@H](CN(C)C(=O)Nc2ccc(C(F)(F)F)cc2)[C@H](C)CN([C@H](C)CO)C(=O)c2cc(NS(=O)(=O)c3ccc(F)cc3)ccc2O1", "experimental-system": "HSkMC", "classification": "inactive"}
{"smiles-code": "C[C@H](CO)N1C[C@H](C)[C@H](CN(C)S(=O)(=O)c2ccccc2)Oc2ccc(NS(=O)(=O)c3ccccc3)cc2CC1=O", "experimental-system": "HSkMC", "classification": "inactive"}
{"smiles-code": "C[C@@H]1CCCCO[C@H](CN(C)C(=O)Nc2ccc(C(F)(F)F)cc2)[C@@H](C)CN([C@@H](C)CO)C(=O)c2cc(NS(=O)(=O)c3ccc(Cl)cc3)ccc2O1", "experimental-system": "HSkMC", "classification": "active"}
{"smiles-code": "C[C@H](O)C#Cc1cnc2c(c1)C(=O)N([C@@H](C)CO)C[C@H](C)[C@H](CN(C)C(=O)CN1CCOCC1)O2", "experimental-system": "HSkMC", "classification": "inactive"}
{"smiles-code": "C[C@@H]1CCCCO[C@@H](CN(C)C(=O)Nc2ccc(C(F)(F)F)cc2)[C@H](C)CN([C@H](C)CO)C(=O)c2cc(NS(=O)(=O)c3ccc(Cl)cc3)ccc2O1", "experimental-system": "HSkMC", "classification": "active"}
{"smiles-code": "Cc1noc(C)c1S(=O)(=O)N(C)C[C@H]1Oc2ccc(NC(=O)Nc3ccc4c(c3)OCO4)cc2CC(=O)N([C@H](C)CO)C[C@@H]1C", "experimental-system": "HSkMC", "classification": "inactive"}
{"smiles-code": "C[C@@H]1CN([C@@H](C)CO)C(=O)c2cc(NC(=O)Nc3ccc(C(F)(F)F)cc3)ccc2O[C@@H](C)CCCCO[C@H]1CN(C)Cc1ccc(C(F)(F)F)cc1", "experimental-system": "HSkMC", "classification": "inactive"}
{"smiles-code": "C[C@H]1CCCCO[C@H](CN(C)C(=O)Nc2ccc(C(F)(F)F)cc2)[C@@H](C)CN([C@@H](C)CO)C(=O)c2cc(NS(=O)(=O)c3ccc(F)cc3)ccc2O1", "experimental-system": "HSkMC", "classification": "active"}
{"smiles-code": "C[C@H]1CCCCO[C@H](CN(C)Cc2ccc(C(F)(F)F)cc2)[C@@H](C)CN([C@@H](C)CO)C(=O)c2cc(NC(=O)Nc3ccc(C(F)(F)F)cc3)ccc2O1", "experimental-system": "HSkMC", "classification": "inactive"}
{"smiles-code": "C[C@@H]1CCCCO[C@H](CN(C)C(=O)Nc2ccc(C(F)(F)F)cc2)[C@H](C)CN([C@@H](C)CO)C(=O)c2cc(NS(=O)(=O)c3ccc(Cl)cc3)ccc2O1", "experimental-system": "HSkMC", "classification": "inactive"}
{"smiles-code": "C[C@H]1CCCCO[C@H](CN(C)S(=O)(=O)c2cccs2)[C@@H](C)CN([C@@H](C)CO)C(=O)c2cc(NC(=O)Nc3cccc4ccccc34)ccc2O1", "experimental-system": "HSkMC", "classification": "inactive"}
{"smiles-code": "C[C@@H]1CN([C@@H](C)CO)C(=O)Cc2cc(NS(=O)(=O)c3ccccc3)ccc2O[C@@H]1CN(C)Cc1ccncc1", "experimental-system": "HSkMC (human skeletal muscle cells)", "classification": "inactive"}
